Hello, the source for this data is ChEMBL document CHEMBL1139369, in case you need it.

- Test summary: Binding affinity to HCV NS3 protease
- Design: species or system Hepacivirus hominis
Measurement type: Ki (nM)

Sample records with Ki:
| Compound | Ki [nM] |
| --- | --- |
| CN(C)C(=O)[C@@H](NC(=O)CNC(=O)C(=O)[C@@H]1CCCCCCCCCC[C@H](NC(=O)OC(C)(C)C)C(=O)N2CC3C([C@H]2C(=O)N1)C3(C)C)c1ccccc1 (single isomer, unassigned) | 6 |
| C=CCNC(=O)C(=O)[C@@H]1CCCCCCCCC[C@H](NC(=O)N[C@H](C(=O)C2CC2)C(C)C)C(=O)N2CC3C([C@H]2C(=O)N1)C3(C)C (single isomer, unassigned) | 20 |
| C=CCNC(=O)C(=O)[C@@H]1CCCCCCCCC[C@H](NC(=O)N[C@H](CN(C)S(C)(=O)=O)C(C)(C)C)C(=O)N2C[C@@H]3[C@H]([C@H]2C(=O)N1)C3(C)C | 3 |

(A) C=CCNC(=O)C(=O)[C@@H]1CCCCCCCCC[C@H](NC(=O)N[C@H](CN2Cc3sccc3S2(=O)=O)C(C)(C)C)C(=O)N2C[C@@H]3[C@H]([C@H]2C(=O)N1)C3(C)C
(B) CN(C[C@@H](NC(=O)N[C@H]1CCCCCCCCC[C@@H](C(=O)C(N)=O)NC(=O)[C@@H]2C3C(CN2C1=O)C3(C)C)C(C)(C)C)S(C)(=O)=O (single isomer, unassigned)
Task item: Could you tell me which of these two has the smaller Ki figure? First: A Second: B Reply with the label of the item you choose.
Reply: B
(B: 3 nM, A: 7 nM)
